MEASUREMENT_DESCRIPTION: NCI Yeast Anticancer Drug Screen. Data for the sgs1 mgt1 strain (AID 161)
DETAILS: S. cerevisiae sgs1 mgt1 strain, stronger effect = higher value; at 50.0 µM unless noted
About 79,000 compounds went through this panel and 15% of them were active in at least one assay; those are over-represented in the sample as a whole.
Respond with MET for growth inhibition values of 20% and above, NOT MET for values below.

Input line: Does growth inhibition meet or surpass 20% for CC(=O)[CH-]C(=O)c1ccccc1.CC(=O)[CH-]C(=O)c1ccccc1.CC(C)CCCC(C)[C@H]1CCC2[C@@H]3CCC4C[C@@H]([O-])CC[C@]4(C)C3CC[C@@]21C.CC(C)CCCC(C)[C@H]1CCC2[C@@H]3CCC4C[C@@H]([O-])CC[C@]4(C)C3CC[C@@]21C.Cl.[Ti+4] (some centres undefined) ?
Output line: MET

Input line: Is growth inhibition for O=C(O)C(=O)c1c(O)[nH]c2ccccc12 at or above 20%?
Output line: NOT MET

Input line: Given the entry COc1ccc2c(c1)CCN1CCCc3ccccc3C21 (centres undefined) , answer whether its growth inhibition meets or surpasses 20%.
Output line: NOT MET

Input line: Please tell me: is the molecule COc1ccc(COC(=O)Nc2ccccc2F)c(OC)c1OC at or over 20% in terms of growth inhibition?
Output line: MET

Input line: Assess whether reported growth inhibition for CSc1ccc(NC(=O)c2ccc(Cl)cc2)cc1 sits at 20% or higher.
Output line: NOT MET

Input line: Check if growth inhibition >= 20% (inclusive). Item: CN(C)c1ccc(N=C(C#N)C(=O)c2ccccc2)cc1
Output line: NOT MET

Input line: I'd appreciate it if you could say whether COC1OC(COS(=O)(=O)c2ccc(C)cc2)C(OS(=O)(=O)c2ccc(C)cc2)C(OS(=O)(=O)c2ccc(C)cc2)C1OS(=O)(=O)c1ccc(C)cc1 (centres undefined) has growth inhibition at least equal to 20%.
Output line: NOT MET

Input line: Please check the record CSC(=S)OC(C)CC(C)C (centres undefined) and state if its growth inhibition is at or above 20%.
Output line: MET
